Measured TGI by item
System: IGROV1 ovarian
Assay Summary: NCI tumour cell line growth inhibition, 48 h

{"columns": ["Molecule", "Assay System", "TGI"],
 "data": [
  ["CSc1nc(=O)c(C#N)c(-c2ccccc2)n1C1OC(COC(C)=O)C(OC(C)=O)C(OC(C)=O)C1OC(C)=O (stereo not drawn)", "IGROV1 ovarian", "> 100 µM"],
  ["CCc1nc(N)nc(N)c1-c1ccc(Cl)c(N=NN(C)C)c1", "IGROV1 ovarian", "> 95.5 µM"],
  ["CCOC(=O)C1(C(=O)OCC)CC=C(C)CC12C(=O)Nc1ccccc12 (stereo not drawn)", "IGROV1 ovarian", "> 100 µM"]
]}

###

Test system: CAKI-1 renal
Assay Summary: NCI tumour cell line growth inhibition, 48 h
Measured GI50 by item
Quantity Measured: GI50

{"columns": ["Compound", "Quantity Measured", "Reading"],
 "data": [
  ["COC(=O)[C@H](Cc1ccccc1)NC(=O)[C@@H](OC)[C@@H]1Cc2cc3cc(OC4CC(OC5CC(O)C(O)C(C)O5)C(O)C(C)O4)c(C)c(O)c3c(O)c2C(=O)[C@H]1OC1CC(OC2CC(OC3CC(C)(O)C(O)C(C)O3)C(O)C(C)O2)C(O)C(C)O1 (some centres not stated)", "GI50", "0.0416 µM"],
  ["COc1ccc(-c2c(C#N)c(N)nc3c2CCCc2ccc(F)cc2-3)cc1OC", "GI50", "0.0241 µM"],
  ["CCCCNCC(O)c1cc(-c2ccc(C(F)(F)F)cc2)nc(-c2ccc(C(F)(F)F)cc2)c1 (configuration not stated)", "GI50", "1.71 µM"],
  ["C[C@@]12CCC[C@@](C)(C(=O)O)C1CC[C@@]13CC(=O)[C@@](CO)(CCC12)C3 (some centres not stated)", "GI50", "> 100 µM"],
  ["CC1(C)CC[C@]2(C(=O)O)CC[C@]3(C)[C@H](CC[C@@H]4[C@@]5(C)CCC(=O)C(C)(C)[C@@H]5CC[C@]43C)[C@H]2[C@H]1OC(=O)C(F)(F)F", "GI50", "12.8 µM"],
  ["CCCCCCCCCC(=O)N[C@H]1CCc2cc(OC)c(OC)c(OC)c2-c2ccc(SC)c(=O)cc21", "GI50", "5.27 µM"],
  ["COc1cccc2c(Nc3ccc(C(=O)NCCN(C)C)cc3)cc(-c3ccccc3)nc12", "GI50", "27.8 µM"]
]}

###

System: MDA-MB-231 breast
Assay Summary: NCI tumour cell line growth inhibition, 48 h
Measured TGI by item
Quantity Measured: TGI

{"columns": ["Compound", "Reading"],
 "data": [
  ["Cc1nc2sccn2c1C(=O)OCCOCCOCCOCCOC(=O)c1c(C)nc2sccn12", "> 100 µM"],
  ["Cc1nn(C(=O)c2ccc(Cl)cc2)c2c1C(c1ccco1)SC(N)=N2 (stereo unspecified)", "> 10 µM"],
  ["COc1cc(/C=C/C(=O)c2cc(OC)c(OC)c(OC)c2)cc(OC)c1OC", "> 100 µM"],
  ["C/C(NC(=O)c1ccccc1)=C(/C(=O)c1ccccc1)[C@@H]1OC(C)(C)O[C@@H]1[C@H]1COC(C)(C)O1", "> 100 µM"],
  ["C/C(=N\\n1c(Cc2ccccc2)n[nH]c1=O)c1ccc([N+](=O)[O-])cc1", "> 100 µM"],
  ["COC1=CCC2=C(CCN(C(=O)C3CCC3)C2Cc2ccc(OC)c(O)c2)C1 (stereo unspecified)", "> 100 µM"],
  ["CCOC(=O)c1cnc2c(cnn2CC)c1NN=C(C)C", "> 100 µM"],
  ["C=C1[C@H](OCC(C)C)[C@@H](OC(=O)C(C)CC)[C@@H](O)C(C)(C)/C=C/[C@H](C)C(=O)[C@@]2(O)C[C@H](C)[C@H](O)[C@@H]2[C@H]1OC(=O)C(C)CC (stereo partly specified)", "> 12.5 µM"],
  ["c1ccc2c(c1)ccc1c3ccccc3ccc21", "> 50 µM"],
  ["O=C1CC(Cl)c2c(Cl)sc(Cl)c21 (stereo unspecified)", "> 25.7 µM"],
  ["Cn1c(=O)c2[nH]c(-n3nc(-c4ccccc4)cc3N)nc2n(C)c1=O", "> 100 µM"],
  ["Clc1ccc(-c2cn(-c3ccccc3)c(-c3ccccc3)n2)c(Cl)c1", "> 50 µM"],
  ["COc1ccc(-c2nn(-c3cccc(NC(=O)Nc4cccc(C(F)(F)F)c4)c3)cc2-c2ccncc2)cc1Cl", "19.8 µM"],
  ["CN1N(c2ccccc2)C(=O)C2=NC=C(C#N)C(=N)C21C (stereo unspecified)", "> 100 µM"],
  ["CC(=O)N1C(OCc2ccccc2)CCN1c1ccccc1 (stereo unspecified)", "> 10 µM"],
  ["CC(C)(CN1CCCCC1)C(=O)/C=C/c1c(Cl)cccc1Cl", "2.15 µM"],
  ["CN(C)/C=N/S(=O)(=O)c1nn2c(C=O)c(-c3cc4ccccc4oc3=O)nc2s1", "32.3 µM"],
  ["C=C(COC(=O)C(C)C)[C@H]1Oc2ccc(C(C)=O)cc2[C@@H]1OC(=O)C(C)C", "> 100 µM"],
  ["Cc1nc(N)nc(N)c1N1CCN(Cc2ccccc2)CC1", "> 100 µM"],
  ["CC(C)(C)OC(=O)NCCNC(=O)CN(CC(=O)O)C1CCCCC1N(CC(=O)O)CC(=O)O (stereo unspecified)", "> 100 µM"],
  ["Cc1ccc(C2(c3ccc(C)c(O)c3C)CCN(C)CC2)c(C)c1O", "> 100 µM"]
]}

Entry source: PubChem BioAssay (NCI)
